Target: T1, Abp1, P15891
T1 sequence (P15891 535-592, looked up): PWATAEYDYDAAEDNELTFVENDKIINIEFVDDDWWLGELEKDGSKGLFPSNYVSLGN
Assay: SPOT array
Details: median of control spots 935
measurement type: SPOT intensity

Known SPOT intensity results, listed for orientation:
{"columns": ["binder", "SPOT intensity"],
 "data": [
  ["VPVAPPPPPASLGQS", 0],
  ["MPAPPPPPPPPPGAF", 0],
  ["PKRRAPPPVPKKPSS", 648],
  ["GERSRPLVISILSSA", 16],
  ["RLPAPPPPPRRGPAP", 0]
]}

a: RRGPAPPPPPRASRP
b: RKNRAPPQRPRFNRD
Parameter check: reported SPOT intensity is higher for which label, a or b ? Let me know the label of the one you choose.
b

P: NNNKMRPHLPPLSSG
Q: WRPRIVPILPYITRL
R: FIRKRAPTPPAPSRS
In this exercise, place the 3 binders in ascending sequence of their recorded SPOT intensity. Dear reader, please state the labels in the requested order.
Q, P, R
(Q: 10, P: 59, R: 259)

I: KNRKNLPTIPIRLSG
II: KTKQQKPAIPQKKSF
Field: lower SPOT intensity | Options: I / II Let me know the label of the one you choose.
I

A: LKPPIGRPPKFPKSP
B: VYTRTAFQIPGDDKI
Field: lower SPOT intensity | Options: A / B Let me know the label of the one you choose.
B
